# measured_on: T1, eTau 1b
# T1 construct: member of the group m9
# T1 polypeptide: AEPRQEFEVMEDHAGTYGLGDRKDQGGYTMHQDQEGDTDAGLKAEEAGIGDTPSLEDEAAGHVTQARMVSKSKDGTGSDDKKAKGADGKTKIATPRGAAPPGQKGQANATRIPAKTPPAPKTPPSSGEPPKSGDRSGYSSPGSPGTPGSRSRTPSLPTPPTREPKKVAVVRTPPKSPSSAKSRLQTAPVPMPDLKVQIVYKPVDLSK
# method: relative binding affinity, method not named (Table 4)
pKd: −log10 of the molar value.
Reported pKd by item:
readout_type: pKd

>>> numeric_result("VH3/Vk1 (antibody, V domains shown, member of the group m7; also called humanized IPN002 variant VH3/Vk1) VH: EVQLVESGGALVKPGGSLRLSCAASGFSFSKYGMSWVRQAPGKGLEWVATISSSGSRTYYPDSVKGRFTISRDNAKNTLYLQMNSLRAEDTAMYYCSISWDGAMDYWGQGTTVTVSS VL: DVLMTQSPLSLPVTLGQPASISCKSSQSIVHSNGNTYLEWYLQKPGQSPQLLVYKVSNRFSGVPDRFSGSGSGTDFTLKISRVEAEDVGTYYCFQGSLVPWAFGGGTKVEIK")
9.28
>>> numeric_result("VH4/Vk2 (antibody, V domains shown, member of the group m7; also called humanized IPN002 variant VH4/Vk2) VH: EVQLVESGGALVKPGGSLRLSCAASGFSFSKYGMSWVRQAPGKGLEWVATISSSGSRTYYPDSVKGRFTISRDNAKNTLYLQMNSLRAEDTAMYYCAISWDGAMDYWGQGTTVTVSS VL: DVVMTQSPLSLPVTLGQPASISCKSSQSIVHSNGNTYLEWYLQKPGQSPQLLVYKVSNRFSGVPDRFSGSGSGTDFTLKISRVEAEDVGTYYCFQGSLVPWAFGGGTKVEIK")
9.32

Entry source: patent US20160122421A1
